Recorded values, source ChEMBL document CHEMBL3885861.

Organism: Rattus norvegicus
assay_overview: Open TG-GATES - Regimen: Single
Format: toxicity, organism-based, Sprague-Dawley
Set-up: regimen Single, gender Male, age 6 weeks
condition_summary: in vivo, po, 0 mg/kg, 3 h, tissue Blood, route gavage, dose level Control
quantity_measured: WBC (x10_2/uL)

[[record]]
compound = "COc1ccc([C@@H]2Sc3ccccc3N(CCN(C)C)C(=O)[C@@H]2OC(C)=O)cc1 [DILTIAZEM]"
quantity_measured = "WBC"
measured = 84.6

[[record]]
compound = "NS(=O)(=O)c1cc(C(=O)O)c(NCc2ccco2)cc1Cl [FUROSEMIDE]"
quantity_measured = "WBC"
measured = 70.5

[[record]]
compound = "CCN(CC)C(=S)SSC(=S)N(CC)CC"
quantity_measured = "WBC"
measured = 97.5

[[record]]
compound = "CCO [ALCOHOL]"
quantity_measured = "WBC"
measured = 99.3

[[record]]
compound = "CC(S)C(=O)NCC(=O)O (stereo not given) [TIOPRONIN]"
quantity_measured = "WBC"
measured = 75.2

[[record]]
compound = "O=c1ccc2ccccc2o1 [COUMARIN]"
quantity_measured = "WBC"
measured = 102.6

[[record]]
compound = "CN(CCOc1ccc(CC2SC(=O)NC2=O)cc1)c1ccccn1.O=C(O)/C=C\\C(=O)O (stereo not given) [ROSIGLITAZONE MALEATE]"
quantity_measured = "WBC"
measured = 110.6

[[record]]
compound = "C=C[C@H]1C[N@@]2CC[C@H]1C[C@@H]2[C@@H](O)c1ccnc2ccc(OC)cc12 [QUINIDINE]"
quantity_measured = "WBC"
measured = 86.7

[[record]]
compound = "CN(C)CCCN1c2ccccc2Sc2ccc(Cl)cc21 [CHLORPROMAZINE]"
quantity_measured = "WBC"
measured = 91.8

[[record]]
compound = "CCCCNC(=O)NS(=O)(=O)c1ccc(C)cc1 [TOLBUTAMIDE]"
quantity_measured = "WBC"
measured = 86


====

Species: Rattus norvegicus
assay_overview: Open TG-GATES - Regimen: Daily Repeat
Type: toxicity, organism-based, Sprague-Dawley
Design: regimen Daily Repeat, gender Male, age 6 weeks
condition_summary: in vivo, po, 100 mg/kg, […], tissue Blood, route gavage, dose level Low, time 28 day
Parameter MCHC: see the listing below.
quantity_measured: MCHC (%)

[[record]]
compound = "CCCCNC(=O)NS(=O)(=O)c1ccc(C)cc1 [TOLBUTAMIDE]"
measured = 33.5

[[record]]
compound = "CC(=O)[C@@]1(O)CC[C@H]2[C@@H]3C=C(Cl)C4=CC(=O)CC[C@]4(C)[C@H]3CC[C@@]21C [CHLORMADINONE]"
measured = 34.4

[[record]]
compound = "CC(S)C(=O)NCC(=O)O (centres undefined) [TIOPRONIN]"
measured = 35.2

[[record]]
compound = "O=C(O)c1ccccc1Nc1ccccc1 [FENAMIC ACID]"
measured = 34.5


====

Species: Rattus norvegicus
assay_overview: Open TG-GATES - Regimen: Single
Type: toxicity, organism-based, Sprague-Dawley
Parameters: regimen Single, gender Male, age 6 weeks
condition_summary: in vivo, po, 0 mg/kg, 6 h, tissue Kidney, route gavage, dose level Control
Parameter KIDNEY_R: see the listing below.
quantity_measured: KIDNEY_R (g)

[[record]]
compound = "O=C(O)c1ccccc1Nc1ccccc1 [FENAMIC ACID]"
quantity_measured = "KIDNEY_R"
result_unit = "g"
measured = 0.9

[[record]]
compound = "CN(C/C=C/C#CC(C)(C)C)Cc1cccc2ccccc12 [TERBINAFINE]"
quantity_measured = "KIDNEY_R"
result_unit = "g"
measured = 1

[[record]]
compound = "CC(=O)[C@@]1(O)CC[C@H]2[C@@H]3C=C(Cl)C4=CC(=O)CC[C@]4(C)[C@H]3CC[C@@]21C [CHLORMADINONE]"
quantity_measured = "KIDNEY_R"
result_unit = "g"
measured = 1

[[record]]
compound = "COc1ccc([C@@H]2Sc3ccccc3N(CCN(C)C)C(=O)[C@@H]2OC(C)=O)cc1 [DILTIAZEM]"
quantity_measured = "KIDNEY_R"
result_unit = "g"
measured = 0.8

[[record]]
compound = "CC(S)C(=O)NCC(=O)O (stereo unspecified) [TIOPRONIN]"
quantity_measured = "KIDNEY_R"
result_unit = "g"
measured = 1

[[record]]
compound = "CCO [ALCOHOL]"
quantity_measured = "KIDNEY_R"
result_unit = "g"
measured = 1


====

Organism: Rattus norvegicus
assay_overview: Open TG-GATES - Regimen: Daily Repeat
Type: toxicity, organism-based, Sprague-Dawley
Set-up: regimen Daily Repeat, gender Male, age 6 weeks
condition_summary: in vivo, po, 0 mg/kg, 72 h, tissue Plasma, route gavage, dose level Control, time 3 day
Parameter gamma-GTP: see the listing below.
quantity_measured: gamma-GTP (IU/L)

[[record]]
molecule = "CCO"
quantity_measured = "gamma-GTP"
result_unit = "IU/L"
measured = 1.2

[[record]]
molecule = "CN(C/C=C/C#CC(C)(C)C)Cc1cccc2ccccc12"
quantity_measured = "gamma-GTP"
result_unit = "IU/L"
measured = 2

[[record]]
molecule = "O=c1ccc2ccccc2o1"
quantity_measured = "gamma-GTP"
result_unit = "IU/L"
measured = 1

[[record]]
molecule = "CN(CCOc1ccc(CC2SC(=O)NC2=O)cc1)c1ccccn1.O=C(O)/C=C\\C(=O)O (stereo not drawn) [ROSIGLITAZONE MALEATE]"
quantity_measured = "gamma-GTP"
result_unit = "IU/L"
measured = 0.2

[[record]]
molecule = "O=C(O)c1ccccc1Nc1ccccc1"
quantity_measured = "gamma-GTP"
result_unit = "IU/L"
measured = 1.6

[[record]]
molecule = "CC(S)C(=O)NCC(=O)O (stereo not drawn)"
quantity_measured = "gamma-GTP"
result_unit = "IU/L"
measured = 1.6

[[record]]
molecule = "Nc1ccc(Cc2ccc(N)cc2)cc1"
quantity_measured = "gamma-GTP"
result_unit = "IU/L"
measured = 1

[[record]]
molecule = "COc1ccc([C@@H]2Sc3ccccc3N(CCN(C)C)C(=O)[C@@H]2OC(C)=O)cc1"
quantity_measured = "gamma-GTP"
result_unit = "IU/L"
measured = 1.2

[[record]]
molecule = "CCCCC1C(=O)N(c2ccccc2)N(c2ccccc2)C1=O"
quantity_measured = "gamma-GTP"
result_unit = "IU/L"
measured = 1.6

[[record]]
molecule = "CC(=O)[C@@]1(O)CC[C@H]2[C@@H]3C=C(Cl)C4=CC(=O)CC[C@]4(C)[C@H]3CC[C@@]21C"
quantity_measured = "gamma-GTP"
result_unit = "IU/L"
measured = 1.4

[[record]]
molecule = "CCN(CC)C(=S)SSC(=S)N(CC)CC"
quantity_measured = "gamma-GTP"
result_unit = "IU/L"
measured = 1.4

[[record]]
molecule = "CCCCNC(=O)NS(=O)(=O)c1ccc(C)cc1 [TOLBUTAMIDE]"
quantity_measured = "gamma-GTP"
result_unit = "IU/L"
measured = 1

[[record]]
molecule = "NS(=O)(=O)c1cc(C(=O)O)c(NCc2ccco2)cc1Cl [FUROSEMIDE]"
quantity_measured = "gamma-GTP"
result_unit = "IU/L"
measured = 0.4


====

Species on record: Rattus norvegicus
assay_overview: Open TG-GATES - Regimen: Daily Repeat
Type: toxicity, organism-based, Sprague-Dawley
Parameters: regimen Daily Repeat, gender Male, age 6 weeks
condition_summary: in vivo, po, 100 mg/kg, […], tissue Blood, route gavage, dose level Low, time 7 day
Parameter Bas: see the listing below.
quantity_measured: Bas

[[record]]
compound = "CCCCNC(=O)NS(=O)(=O)c1ccc(C)cc1 [TOLBUTAMIDE]"
measured = "0%"

[[record]]
compound = "O=C(O)c1ccccc1Nc1ccccc1"
measured = "0.6%"

[[record]]
compound = "CC(=O)[C@@]1(O)CC[C@H]2[C@@H]3C=C(Cl)C4=CC(=O)CC[C@]4(C)[C@H]3CC[C@@]21C"
measured = "0%"

[[record]]
compound = "CC(S)C(=O)NCC(=O)O (centres undefined)"
measured = "0%"


====

Parameter PL: see the listing below.
Species: Rattus norvegicus
assay_overview: Open TG-GATES - Regimen: Single
Type: toxicity, organism-based, Sprague-Dawley
Design: regimen Single, gender Male, age 6 weeks
condition_summary: in vivo, po, 0 mg/kg, 24 h, tissue Plasma, route gavage, dose level Control
quantity_measured: PL (mg/dL)

[[record]]
compound = "NS(=O)(=O)c1cc(C(=O)O)c(NCc2ccco2)cc1Cl [FUROSEMIDE]"
quantity_measured = "PL"
measured = 156

[[record]]
compound = "CN(C)CCCN1c2ccccc2Sc2ccc(Cl)cc21 [CHLORPROMAZINE]"
quantity_measured = "PL"
measured = 140

[[record]]
compound = "CN(C/C=C/C#CC(C)(C)C)Cc1cccc2ccccc12 [TERBINAFINE]"
quantity_measured = "PL"
measured = 152

[[record]]
compound = "CN(CCOc1ccc(CC2SC(=O)NC2=O)cc1)c1ccccn1.O=C(O)/C=C\\C(=O)O (stereo not given) [ROSIGLITAZONE MALEATE]"
quantity_measured = "PL"
measured = 164.2

[[record]]
compound = "COc1cc2ncnc(Nc3ccc(F)c(Cl)c3)c2cc1OCCCN1CCOCC1 [GEFITINIB]"
quantity_measured = "PL"
measured = 149.5

